The entries below come with measured selectivity ratio values attached.
MEASUREMENT NOTES: Selectivity index, ratio of CC50 for human MT4 cells to EC50 for wild type HIV1 NL4-3
Type: toxicity, cell-based
CONDITION: read-out: Ratio CC50/EC50

Study these solved cases before continuing.
# COMPOUND, selectivity ratio
measured = [
    ("Cc1c(N)nc(Nc2ccc(C#N)cc2)nc1[C@H](C)c1c(F)cccc1F", 300000),
    ("Cc1c(N)nc(Nc2ccc(C#N)cc2)nc1[C@@H](C)c1c(F)cccc1F", 40),
    ("CCCN(C)c1nc([C@H](C)c2c(F)cccc2F)c(C)c(=O)[nH]1", 58000),
    ("CCCN(C)c1nc(C(C)c2c(F)cccc2F)c(C)c(=O)[nH]1 (racemic)", "> 41000"),
    ("Cc1ccnc2c1NC(=O)c1cccnc1N2C1CC1", 58),
]

Alright, here's another compound for you.
Input line: Please give the measured selectivity ratio for this compound: CCCN(C)c1nc([C@@H](C)c2c(F)cccc2F)c(C)c(=O)[nH]1
Output line: > 5.2

====

MEASUREMENT NOTES: Cytotoxicity against human MT4 cells after 5 days by MTT assay
Format: cell-based
Overview of recorded CC50 at 120 h for various compounds
Please give a number only; it is taken to be in µM.

Here's what some known entries look like.
# TEST SMILES, TEST RESULT
measured = [
    ("CCCN(C)c1nc([C@H](C)c2c(F)cccc2F)c(C)c(=O)[nH]1", 75),
    ("Cc1cc(C)c(Nc2ccnc(Nc3ccc(C#N)cc3)n2)c(C)c1", 3),
    ("Cc1c(N)nc(Nc2ccc(C#N)cc2)nc1[C@H](C)c1c(F)cccc1F", 31),
]

Input line: Given O=C1Nc2ccc(Cl)cc2[C@@](C#CC2CC2)(C(F)(F)F)O1 , state its recorded CC50 at 120 h.
Output line: 3.2

Input line: Any idea what CC50 at 120 h was measured for Cc1c(N)nc(Nc2ccc(C#N)cc2)nc1[C@@H](C)c1c(F)cccc1F ?
Output line: 38

Input line: Which value of CC50 at 120 h has been reported for Cc1ccnc2c1NC(=O)c1cccnc1N2C1CC1 in the records?
Output line: 7.5

====

Attribute: ID50
System: Human immunodeficiency virus type 1 reverse transcriptase (Human immunodeficiency virus 1), Q72547 [K103N]
Report only the number, with the unit µM understood.

# COMPOUND, MEASUREMENT UNIT, ID50
measured = [
    ("Cc1c(N)nc(Nc2ccc(C#N)cc2)nc1[C@@H](C)c1c(F)cccc1F", "µM", 0.24),
    ("CCCN(C)c1nc([C@H](C)c2c(F)cccc2F)c(C)c(=O)[nH]1", "µM", 0.096),
    ("CCCN(C)c1nc(C(C)c2c(F)cccc2F)c(C)c(=O)[nH]1 (racemic)", "µM", 0.174),
]

Proceed to the following item.
Input line: Reported ID50 for Cc1c(N)nc(Nc2ccc(C#N)cc2)nc1[C@H](C)c1c(F)cccc1F : what is it?
Output line: 0.008

====

Tested on: Human immunodeficiency virus type 1 reverse transcriptase (Human immunodeficiency virus 1), Q72547 [Y181I]
RECORDED ENDPOINT: ID50

Known ID50 results, listed for orientation:
# COMPOUND, ID50
measured = [
    ("Cc1c(N)nc(Nc2ccc(C#N)cc2)nc1[C@@H](C)c1c(F)cccc1F", "> 20000 nM"),
    ("CCCN(C)c1nc([C@@H](C)c2c(F)cccc2F)c(C)c(=O)[nH]1", "> 20000 nM"),
    ("Cc1c(N)nc(Nc2ccc(C#N)cc2)nc1[C@H](C)c1c(F)cccc1F", "750 nM"),
    ("CCCN(C)c1nc([C@H](C)c2c(F)cccc2F)c(C)c(=O)[nH]1", "450 nM"),
]

Please examine the following record next.
Input line: Given CCCN(C)c1nc(C(C)c2c(F)cccc2F)c(C)c(=O)[nH]1 (racemic) , state its recorded ID50.
Output line: 1260 nM

This collection of values is drawn from ChEMBL document CHEMBL2034813.
